molecular target: UniProt:P09917; test: Inhibition of lipoxygenase at the concentration of 1 uM
Sequence (P09917 whole entry): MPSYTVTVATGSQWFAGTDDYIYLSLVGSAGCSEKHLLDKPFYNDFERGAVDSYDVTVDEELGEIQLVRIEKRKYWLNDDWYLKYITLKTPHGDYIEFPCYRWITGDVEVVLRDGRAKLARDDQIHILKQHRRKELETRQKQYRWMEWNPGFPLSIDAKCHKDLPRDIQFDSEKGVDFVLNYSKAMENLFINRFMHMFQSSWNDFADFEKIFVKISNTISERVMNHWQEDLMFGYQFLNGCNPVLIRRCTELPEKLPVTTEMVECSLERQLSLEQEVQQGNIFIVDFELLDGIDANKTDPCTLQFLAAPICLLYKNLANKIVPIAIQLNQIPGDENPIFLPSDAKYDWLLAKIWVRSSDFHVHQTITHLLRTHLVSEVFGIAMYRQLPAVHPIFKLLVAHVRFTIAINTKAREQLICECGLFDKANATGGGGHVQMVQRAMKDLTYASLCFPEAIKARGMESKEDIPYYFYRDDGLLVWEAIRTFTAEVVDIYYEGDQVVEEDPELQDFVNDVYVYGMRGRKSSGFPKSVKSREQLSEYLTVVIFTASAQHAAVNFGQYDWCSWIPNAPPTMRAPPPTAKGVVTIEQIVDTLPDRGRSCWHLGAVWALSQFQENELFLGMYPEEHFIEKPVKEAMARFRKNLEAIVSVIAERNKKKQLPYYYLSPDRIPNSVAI
METRIC_NAME: inhibition (%)
Kindly answer with a numeric value in %, unit omitted.

Record excerpt, results attached:
MOLECULAR_STRING: CCc1cc(/C=C/c2ccc(C)cc2)cc(CC)c1O
UNIT_ABBREVIATION: %
OBSERVED_RESULT: 91
--
MOLECULAR_STRING: Cc1cc(/C=C/c2ccccc2Br)cc(C)c1O
UNIT_ABBREVIATION: %
OBSERVED_RESULT: 94
--
MOLECULAR_STRING: CC(C)(C)c1cc(/C=C/c2ccc(F)cc2)cc(C(C)(C)C)c1O
UNIT_ABBREVIATION: %
OBSERVED_RESULT: 18
--
MOLECULAR_STRING: CC(C)c1cc(/C=C/c2ccc(F)cc2)cc(C(C)C)c1O
UNIT_ABBREVIATION: %
OBSERVED_RESULT: 40
--
MOLECULAR_STRING: Cc1cc(/C=C/c2c(F)cccc2F)cc(C)c1O
UNIT_ABBREVIATION: %
OBSERVED_RESULT: 96

q: Give the reported inhibition for this molecule. Cc1cc(/C=C/c2cc(F)cc(F)c2)cc(C)c1O
a: 81

q: Determine from records and report inhibition for Cc1cc(/C=C2\CCOC2=O)cc(C)c1O
a: 1

q: Tell us which inhibition value is on record for Cc1cc(/C=C/c2ccccc2C(F)(F)F)cc(C)c1O
a: 94

q: For the molecule Cc1cc(/C=C/c2ccncc2)cc(C)c1O , report inhibition.
a: 51

q: Note inhibition for the molecule shown: Cc1cc(/C=C/c2ccc3ccccc3c2)cc(C)c1O
a: 61

q: Assign inhibition to the following record: Cc1cc(/C=C/c2cccc3ccccc23)cc(C)c1O
a: 94

q: Give me measured inhibition, please, for this molecule: Cc1cc(/C=C/c2csc3ccccc23)cc(C)c1O
a: 87
